Molecular target: PYR1 receptor-HAB1 protein phosphatase complex (Arabidopsis thaliana, UniProt O49686)
Construct: made in house; host or cells: E. coli BL21 (DE3)
Sequence (O49686 1-191): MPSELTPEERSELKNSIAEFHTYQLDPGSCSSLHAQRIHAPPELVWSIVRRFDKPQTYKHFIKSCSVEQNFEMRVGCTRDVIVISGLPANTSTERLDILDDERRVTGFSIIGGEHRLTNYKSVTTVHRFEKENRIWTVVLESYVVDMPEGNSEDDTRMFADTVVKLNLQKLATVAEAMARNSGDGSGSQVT
Sequence (Q9CAJ0 172-511 partner limits assumed): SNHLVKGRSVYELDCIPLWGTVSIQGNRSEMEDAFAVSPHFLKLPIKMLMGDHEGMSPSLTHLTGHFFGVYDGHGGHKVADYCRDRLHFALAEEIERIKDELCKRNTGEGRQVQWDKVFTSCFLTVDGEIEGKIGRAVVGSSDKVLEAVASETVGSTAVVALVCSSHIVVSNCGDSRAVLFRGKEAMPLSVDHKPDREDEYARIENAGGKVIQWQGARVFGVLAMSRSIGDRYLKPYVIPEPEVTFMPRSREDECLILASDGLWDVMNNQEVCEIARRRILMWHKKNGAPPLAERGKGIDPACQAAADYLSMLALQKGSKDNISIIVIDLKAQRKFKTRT
Assay: AlphaScreen assay: promotion of PYR1 receptor binding to PP2C protein phosphatase HAB1
Settings: EC50, FIG. 2h; 6×His-SUMO-tagged PYR1 (whole coding sequence), Biotin-tagged HAB1 (aa 172-511), 100 nM each; pH 7.4; 1.5 h room temperature
EXPERIMENTAL ENDPOINT: pEC50
pEC50 here is simply -log10 of the concentration when that concentration is written in mol/L.

pEC50 reading for CC1=CC(=O)CC(C)(C)[C@@]1(O)/C=C/C(C)=C\C(=O)O [ABA, Abscisic Acid, reference compound] : 5.37
